# test summary: physchem
# Type: physicochemical
# stated conditions: methanol/cacl2, organic solvent or mixture, Solubility of Natamycin in Methanol/CaCl2 Extractant
assay metric: solubility (mg/mL)
Give just the number in mg/mL; leave the unit off.

Prompt: solubility lookup needed for C[C@@H]1C/C=C/C=C/C=C/C=C/[C@H](O[C@@H]2O[C@H](C)[C@@H](O)[C@H](N)[C@@H]2O)C[C@@H]2O[C@](O)(C[C@@H](O)C[C@H]3O[C@@H]3/C=C/C(=O)O1)C[C@H](O)[C@H]2C(=O)O [Natamycin, natamycin] , thanks.
Response: 91

* * *

# test summary: physchem
# Type: physicochemical
# stated conditions: methanol/water, pH 2.4, organic solvent or mixture
assay metric: solubility

Prompt: solubility lookup needed for "C[C@@H]1C/C=C/C=C/C=C/C=C/[C@H](O[C@@H]2O[C@H](C)[C@@H](O)[C@H](N)[C@@H]2O)C[C@@H]2O[C@](O)(C[C@@H](O)C[C@H]3O[C@@H]3/C=C/C(=O)O1)C[C@H](O)[C@H]2C(=O)O" , thanks.
Response: 55 mg/mL
